- target-of-assay: CDK6 (Homo sapiens, UniProt Q00534)
- Sequence (Q00534 whole entry, species assumed, one chain of several): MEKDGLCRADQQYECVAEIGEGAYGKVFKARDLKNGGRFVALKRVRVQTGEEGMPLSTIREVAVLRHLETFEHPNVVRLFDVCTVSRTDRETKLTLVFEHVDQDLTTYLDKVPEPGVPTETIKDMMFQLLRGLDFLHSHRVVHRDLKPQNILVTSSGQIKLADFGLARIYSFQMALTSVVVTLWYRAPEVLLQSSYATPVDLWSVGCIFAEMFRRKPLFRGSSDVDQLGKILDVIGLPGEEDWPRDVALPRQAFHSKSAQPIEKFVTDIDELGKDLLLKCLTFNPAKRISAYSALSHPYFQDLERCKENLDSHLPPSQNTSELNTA
- assay-notes: CDK6 inhibition by Caliper assay
- Assay type: biochemical
- assay-setup: compound 100 nM
Threshold check on inhibition at 0.1 µM: at or above 80% gives 1.0, strictly below gives 0.0.

{"molecule": "CN(C)C(=O)c1cc2cnc(Nc3ccc(N4CCN(CCOCCOCCOCCNc5cccc6c5C(=O)N(C5CCC(=O)NC5=O)C6=O)CC4)cn3)nc2n1C1CCCC1 (centres unmarked) [Compound 18]", "group": 0.0}
{"molecule": "CC(=O)c1c(C)c2cnc(Nc3ccc(N4CCN(CCOCCOCCOCCNc5cccc6c5C(=O)N(C5CCC(=O)NC5=O)C6=O)CC4)cn3)nc2n(C2CCCC2)c1=O (centres unmarked) [Compound 16]", "group": 0.0}
{"molecule": "CC(=O)c1c(C)c2cnc(Nc3ccc(N4CCN(S(=O)(=O)CCCCCOc5cccc6c5C(=O)N(C5CCC(=O)NC5=O)C6=O)CC4)cn3)nc2n(C2CCCC2)c1=O (centres unmarked) [Compound 14]", "group": 1.0}
{"molecule": "CC(=O)c1c(C)c2cnc(Nc3ccc(N4CCN(CCCCOc5cccc6c5C(=O)N(C5CCC(=O)NC5=O)C6=O)CC4)cn3)nc2n(C2CCCC2)c1=O (centres unmarked) [Compound 24]", "group": 1.0}
{"molecule": "CC(=O)c1c(C)c2cnc(Nc3ccc(N4CCN(CCOCCOCCOc5cccc6c5C(=O)N(C5CCC(=O)NC5=O)C6=O)CC4)cn3)nc2n(C2CCCC2)c1=O (centres unmarked) [Compound 8]", "group": 1.0}
{"molecule": "CC(=O)c1c(C)c2cnc(Nc3ccc(N4CCN(CCOCCOCCNc5cccc6c5C(=O)N(C5CCC(=O)NC5=O)C6=O)CC4)cn3)nc2n(C2CCCC2)c1=O (centres unmarked) [Compound 15]", "group": 0.0}
{"molecule": "CN(C)C(=O)c1cc2cnc(Nc3ccc(N4CCN(CCOCCOCCNc5cccc6c5C(=O)N(C5CCC(=O)NC5=O)C6=O)CC4)cn3)nc2n1C1CCCC1 (centres unmarked) [Compound 17]", "group": 0.0}
{"molecule": "CC(=O)c1c(C)c2cnc(Nc3ccc(N4CCN(CCOCCOCCOCCOc5cccc6c5C(=O)N(C5CCC(=O)NC5=O)C6=O)CC4)cn3)nc2n(C2CCCC2)c1=O (centres unmarked) [Compound 21]", "group": 1.0}
{"molecule": "CN(C)C(=O)c1cc2cnc(Nc3ccc(N4CCN(CCOCCOCCOc5cccc6c5C(=O)N(C5CCC(=O)NC5=O)C6=O)CC4)cn3)nc2n1C1CCCC1 (centres unmarked) [Compound 19]", "group": 0.0}
{"molecule": "CN(C)C(=O)c1cc2cnc(Nc3ccc(N4CCN(CCCCCC(=O)Nc5cccc6c5C(=O)N(C5CCC(=O)NC5=O)C6=O)CC4)cn3)nc2n1C1CCCC1 (centres unmarked) [Compound 3]", "group": 1.0}

###

Each item that follows carries a reported inhibition at 0.1 µM.
- target-of-assay: CDK4 (Homo sapiens)
- assay-notes: CDK4 inhibition by Caliper assay
- Assay type: biochemical
- assay-setup: compound 100 nM
- Sequence (P11802 whole entry, species assumed): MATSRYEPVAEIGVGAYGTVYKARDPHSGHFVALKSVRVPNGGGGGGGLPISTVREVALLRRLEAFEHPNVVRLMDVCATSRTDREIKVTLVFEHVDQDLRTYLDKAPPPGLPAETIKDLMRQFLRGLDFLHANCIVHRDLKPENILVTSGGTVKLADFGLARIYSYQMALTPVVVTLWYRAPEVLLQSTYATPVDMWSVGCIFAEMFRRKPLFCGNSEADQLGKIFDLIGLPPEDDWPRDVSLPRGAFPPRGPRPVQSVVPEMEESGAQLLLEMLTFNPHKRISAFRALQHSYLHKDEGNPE
- Sequence (P30281 whole entry partner, species assumed): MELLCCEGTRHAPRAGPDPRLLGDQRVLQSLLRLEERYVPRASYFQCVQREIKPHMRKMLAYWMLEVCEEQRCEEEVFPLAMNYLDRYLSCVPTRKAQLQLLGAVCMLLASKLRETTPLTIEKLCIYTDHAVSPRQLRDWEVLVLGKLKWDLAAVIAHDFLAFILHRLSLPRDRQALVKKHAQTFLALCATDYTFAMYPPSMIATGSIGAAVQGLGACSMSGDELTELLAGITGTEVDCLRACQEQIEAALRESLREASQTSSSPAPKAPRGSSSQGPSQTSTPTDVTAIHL
measurement-type: inhibition at 0.1 µM (%)

{"molecule": "CN(C)C(=O)c1cc2cnc(Nc3ccc(N4CCN(CCOCCOCCOCCNc5cccc6c5C(=O)N(C5CCC(=O)NC5=O)C6=O)CC4)cn3)nc2n1C1CCCC1 (centres unmarked) [Compound 18]", "measurement-type": "inhibition at 0.1 µM", "unit-spec": "%", "recorded-number": 80}
{"molecule": "CN(C)C(=O)c1cc2cnc(Nc3ccc(N4CCN(CCCCCC(=O)Nc5cccc6c5C(=O)N(C5CCC(=O)NC5=O)C6=O)CC4)cn3)nc2n1C1CCCC1 (centres unmarked) [Compound 3]", "measurement-type": "inhibition at 0.1 µM", "unit-spec": "%", "recorded-number": 97}
{"molecule": "CC(=O)c1c(C)c2cnc(Nc3ccc(N4CCN(S(=O)(=O)CCCCCOc5cccc6c5C(=O)N(C5CCC(=O)NC5=O)C6=O)CC4)cn3)nc2n(C2CCCC2)c1=O (centres unmarked) [Compound 14]", "measurement-type": "inhibition at 0.1 µM", "unit-spec": "%", "recorded-number": 92}
{"molecule": "CC(=O)c1c(C)c2cnc(Nc3ccc(N4CCN(CCOCCOCCOCCOc5cccc6c5C(=O)N(C5CCC(=O)NC5=O)C6=O)CC4)cn3)nc2n(C2CCCC2)c1=O (centres unmarked) [Compound 21]", "measurement-type": "inhibition at 0.1 µM", "unit-spec": "%", "recorded-number": 93}
{"molecule": "CC(=O)c1c(C)c2cnc(Nc3ccc(N4CCN(CCOCCOCCNc5cccc6c5C(=O)N(C5CCC(=O)NC5=O)C6=O)CC4)cn3)nc2n(C2CCCC2)c1=O (centres unmarked) [Compound 15]", "measurement-type": "inhibition at 0.1 µM", "unit-spec": "%", "recorded-number": 91}

###

- target-of-assay: CDK4 (Homo sapiens, UniProt P11802)
- assay-notes: CDK4 protein degradation activity by Western blot in MCF-7 cells
- Type: cell-based
- Set-up: host or cells: MCF-7
- assay-setup: MCF7, compound 1 μM, 24 hours
- Sequence (P11802 whole entry): as the sequence (P11802 whole entry, species assumed) above

{"compound": "CC(=O)c1c(C)c2cnc(Nc3ccc(N4CCN(CCOCCOCCOCCOc5cccc6c5C(=O)N(C5CCC(=O)NC5=O)C6=O)CC4)cn3)nc2n(C2CCCC2)c1=O (stereo not drawn) [Compound 21]", "Dmax at 1 µM": "50 to 90%"}
{"compound": "CC(=O)c1c(C)c2cnc(Nc3ccc(N4CCN(CCOCCOCCOc5cccc6c5C(=O)N(C5CCC(=O)NC5=O)C6=O)CC4)cn3)nc2n(C2CCCC2)c1=O (stereo not drawn) [Compound 8]", "Dmax at 1 µM": "50 to 90%"}
{"compound": "CN(C)C(=O)c1cc2cnc(Nc3ccc(N4CCN(CCOCCOCCNc5cccc6c5C(=O)N(C5CCC(=O)NC5=O)C6=O)CC4)cn3)nc2n1C1CCCC1 (stereo not drawn) [Compound 17]", "Dmax at 1 µM": "50 to 90%"}
